experimental.target: MPXV VP39 2′-O-RNA methyltransferase (Monkeypox virus)
Sequence (A0A7H0DN74 whole entry, looked up): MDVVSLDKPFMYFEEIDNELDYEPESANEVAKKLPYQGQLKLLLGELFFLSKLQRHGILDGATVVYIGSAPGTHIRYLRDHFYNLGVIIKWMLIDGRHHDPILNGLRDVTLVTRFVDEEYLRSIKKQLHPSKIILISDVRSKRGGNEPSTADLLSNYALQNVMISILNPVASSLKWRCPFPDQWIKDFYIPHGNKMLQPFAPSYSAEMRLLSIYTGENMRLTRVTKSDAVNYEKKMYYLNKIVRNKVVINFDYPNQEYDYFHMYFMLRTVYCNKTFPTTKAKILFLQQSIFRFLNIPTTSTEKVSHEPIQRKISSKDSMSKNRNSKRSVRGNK
assay.method.text: biochemical
Listing of entries alongside the reported LogIC50, individual fit of data set 1.
Respond with the number and no other words.

                                   molecule                       experimental_target                           test_readout   number
0  Nc1ncnc2c1c(C#Cc1cccc3ccccc13)cn2[C@@H]1O[C@H](CSCC[C@H](N)C(=O)O)[C@@H](O)[C@H]1O  MPXV VP39 2′-O-RNA methyltransferase (Monkeypox virus)  LogIC50, individual fit of data set 1   -1.017
1  Nc1ncnc2c1c(C#Cc1ccc3ccccc3c1)cn2[C@@H]1O[C@H](CSCC[C@H](N)C(=O)O)[C@@H](O)[C@H]1O  MPXV VP39 2′-O-RNA methyltransferase (Monkeypox virus)  LogIC50, individual fit of data set 1   -1.131
2  Nc1ncnc2c1c(C#Cc1cnc3ccccc3c1)cn2[C@@H]1O[C@H](CSCC[C@H](N)C(=O)O)[C@@H](O)[C@H]1O  MPXV VP39 2′-O-RNA methyltransferase (Monkeypox virus)  LogIC50, individual fit of data set 1  -0.9877
3  Nc1ncnc2c1c(C#Cc1nc3ccccc3[nH]1)cn2[C@@H]1O[C@H](CSCC[C@H](N)C(=O)O)[C@@H](O)[C@H]1O  MPXV VP39 2′-O-RNA methyltransferase (Monkeypox virus)  LogIC50, individual fit of data set 1  -0.7814
4  Nc1ncnc2c1c(I)cn2[C@@H]1O[C@H](CSCC[C@H](N)C(=O)O)[C@@H](O)[C@H]1O  MPXV VP39 2′-O-RNA methyltransferase (Monkeypox virus)  LogIC50, individual fit of data set 1  -0.9194
5  Nc1ncnc2c1ncn2[C@@H]1O[C@H](C[C@@H](N)CC[C@H](N)C(=O)O)[C@@H](O)[C@H]1O [sinefungin, reference compound]  MPXV VP39 2′-O-RNA methyltransferase (Monkeypox virus)  LogIC50, individual fit of data set 1   0.3792
6  C=Cc1cn([C@@H]2O[C@H](CSCC[C@H](N)C(=O)O)[C@@H](O)[C@H]2O)c2ncnc(N)c12  MPXV VP39 2′-O-RNA methyltransferase (Monkeypox virus)  LogIC50, individual fit of data set 1  -0.8617
7  Nc1ncnc2c1c(C#Cc1ccccc1)cn2[C@@H]1O[C@H](CSCC[C@H](N)C(=O)O)[C@@H](O)[C@H]1O  MPXV VP39 2′-O-RNA methyltransferase (Monkeypox virus)  LogIC50, individual fit of data set 1  -0.9395

Now for a further molecule.
In: Tell me the measured LogIC50, individual fit of data set 1 of CCc1cn([C@@H]2O[C@H](CSCC[C@H](N)C(=O)O)[C@@H](O)[C@H]2O)c2ncnc(N)c12 , please.
Out: -1.122

----------
experimental.target: MPXV VP39 2′-O-RNA methyltransferase (Monkeypox virus)
assay.method.text: biochemical
experimental.conditions: IC50, individual fit of data set 2
test.readout: pIC50
Please report pIC50 as the negative decimal logarithm of the molar concentration, giving only the number.

// below: answered compounds
>>> print(df.to_string())
                                   compound  test_readout  number
0  Nc1ncnc2c1c(I)cn2[C@@H]1O[C@H](CSCC[C@H](N)C(=O)O)[C@@H](O)[C@H]1O [TO1119]         pIC50    6.87
1  Nc1ncnc2c1c(C#Cc1nc3ccccc3[nH]1)cn2[C@@H]1O[C@H](CSCC[C@H](N)C(=O)O)[C@@H](O)[C@H]1O [TO500]         pIC50    6.76
2  Nc1ncnc2c1c(C#Cc1cnc3ccccc3c1)cn2[C@@H]1O[C@H](CSCC[C@H](N)C(=O)O)[C@@H](O)[C@H]1O [TO507]         pIC50    6.88

In: # lookup: pIC50 of Nc1ncnc2c1c(C#Cc1ccc3ccccc3c1)cn2[C@@H]1O[C@H](CSCC[C@H](N)C(=O)O)[C@@H](O)[C@H]1O [TO504]
Out: 7.08

In: Given the compound Nc1ncnc2c1c(C#Cc1ccccc1)cn2[C@@H]1O[C@H](CSCC[C@H](N)C(=O)O)[C@@H](O)[C@H]1O [TO427] , what is its reported pIC50?
Out: 6.94

In: # query: pIC50 of entry Nc1ncnc2c1ncn2[C@@H]1O[C@H](C[C@@H](N)CC[C@H](N)C(=O)O)[C@@H](O)[C@H]1O [sinefungin, reference compound]
Out: 5.64

In: Entry CCc1cn([C@@H]2O[C@H](CSCC[C@H](N)C(=O)O)[C@@H](O)[C@H]2O)c2ncnc(N)c12 [TO1111] has what pIC50?
Out: 6.99

In: # get_value(readout='pIC50', item= C=Cc1cn([C@@H]2O[C@H](CSCC[C@H](N)C(=O)O)[C@@H](O)[C@H]2O)c2ncnc(N)c12 [TO1116] )
Out: 6.81
